Cited source: PubChem BioAssay AID1963443

system: MDA-MB-231 complex spheroids, growth inhibition; experiment: Anticancer human tumor MDA-MB-231 cell line growth inhibition [Asc]; settings: second compound 0.949 µM; first compound 0.316 µM; stronger effect = lower value;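 also: spheroids exposed to compounds for 7 days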
measured.quantity: viability, T/C

C=C(F)C(=O)N1CCN(c2nc(OCC3CCCN3C)nc3c2CCN(c2cccc4cccc(Cl)c24)C3)CC1CC#N (stereo not drawn) + CCN1C(C(=O)NC23CCC(C(=O)O)(CC2)CC3)C(c2cccc(Cl)c2F)C2(C(=O)Nc3cc(Cl)ccc32)C12CCCCC2 :: 114%
O=C(c1ccc(F)c(F)c1Nc1ccc(I)cc1F)N1CC(O)([C@@H]2CCCCN2)C1 + CCN1C(C(=O)NC23CCC(C(=O)O)(CC2)CC3)C(c2cccc(Cl)c2F)C2(C(=O)Nc3cc(Cl)ccc32)C12CCCCC2 :: 22.6%

Entry C#Cc1c(F)ccc2cc(O)cc(-c3ncc4c(N5CC6CCC(C5)N6)nc(OCC56CCCN5CC(F)C6)nc4c3F)c12 (stereo not drawn) + CCN1C(C(=O)NC23CCC(C(=O)O)(CC2)CC3)C(c2cccc(Cl)c2F)C2(C(=O)Nc3cc(Cl)ccc32)C12CCCCC2 under MDA-MB-231 complex spheroids, growth inhibition had viability, T/C of 103%

* * *

Catalogue of viability, T/C readings, one per entry.
system: MDA-MB-231 complex spheroids, growth inhibition; experiment: Anticancer human tumor MDA-MB-231 cell line growth inhibition [Asc]; conditions: second compound 0.316 µM; first compound 3 µM; stronger effect = lower value;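 also: spheroids exposed to compounds for 7 days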
Your answer is read as %, so omit the unit and give the number.

Worked set:
CCN1C(C(=O)NC23CCC(C(=O)O)(CC2)CC3)C(c2cccc(Cl)c2F)C2(C(=O)Nc3cc(Cl)ccc32)C12CCCCC2 (centres undefined) + Cc1c(S(C)(=O)=O)c(-c2cc(F)cc(N3CCN(c4ccc(NS(=O)(=O)c5ccc(NC(CCN6CCC(C(=O)OCCCP(=O)(O)O)CC6)CSc6ccccc6)c(S(=O)(=O)C(F)(F)F)c5)cc4)CC3)c2)c(-c2ccc(Cl)cc2)n1C(C)C :: 94.9
Cc1nc(N2CCC3(CC2)COC(C)C3N)c(CO)nc1Sc1ccnc(N)c1Cl (centres undefined) + CNC(C)C(=O)NC1CN(S(=O)(=O)c2cccc(S(=O)(=O)N3CCC4CCC(C(=O)NC(c5ccccc5)c5ccccc5)N4C(=O)C(NC(=O)C(C)NC)C3)c2)CCC2CCC(C(=O)NC(c3ccccc3)c3ccccc3)N2C1=O :: 0.94
Cc1nc(N2CCC3(CC2)COC(C)C3N)c(CO)nc1Sc1ccnc(N)c1Cl (centres undefined) + Cc1c(S(C)(=O)=O)c(-c2cc(F)cc(N3CCN(c4ccc(NS(=O)(=O)c5ccc(NC(CCN6CCC(C(=O)OCCCP(=O)(O)O)CC6)CSc6ccccc6)c(S(=O)(=O)C(F)(F)F)c5)cc4)CC3)c2)c(-c2ccc(Cl)cc2)n1C(C)C :: 1.39

Entry CCN1C(C(=O)NC23CCC(C(=O)O)(CC2)CC3)C(c2cccc(Cl)c2F)C2(C(=O)Nc3cc(Cl)ccc32)C12CCCCC2 (centres undefined) + CNC(C)C(=O)NC1CN(S(=O)(=O)c2cccc(S(=O)(=O)N3CCC4CCC(C(=O)NC(c5ccccc5)c5ccccc5)N4C(=O)C(NC(=O)C(C)NC)C3)c2)CCC2CCC(C(=O)NC(c3ccccc3)c3ccccc3)N2C1=O under MDA-MB-231 complex spheroids, growth inhibition had viability, T/C of 1.24

* * *

tested on: MDA-MB-231 complex spheroids, growth inhibition; assay: Anticancer human tumor MDA-MB-231 cell line growth inhibition [Asc]; details: curve of first compound; second compound 0.03 µM;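 also: spheroids exposed to compounds for 7 days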
measured.quantity: pIC50
Formally, pIC50 is defined as -log10 of the concentration c, with c in mol/L.

Noted for NC(=O)C(=Cn1cnc(-c2cc(C(F)(F)F)cc(C(F)(F)F)c2)n1)c1cncnc1 + CCN1C(C(=O)NC23CCC(C(=O)O)(CC2)CC3)C(c2cccc(Cl)c2F)C2(C(=O)Nc3cc(Cl)ccc32)C12CCCCC2 : its pIC50 reads 7.11

* * *

Catalogue of viability, T/C readings, one per entry.
Test system: MDA-MB-231 complex spheroids, growth inhibition
Test: Anticancer human tumor MDA-MB-231 cell line growth inhibition [Asc];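 also: spheroids exposed to compounds for 7 days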
Settings: second compound 3 µM; first compound 0.00316 µM; stronger effect = lower value
Excerpt: Multicellular complex tumor spheroid response to apoptosis pathway targeting inhibitors Alrizomadlin, Pelcitoclax, and Dasminapant in combination with a variety of drugs and investigational agents in selected tumor cell lines […] Compounds. […] If the clinical Cmax for an agent had not been determined, the highest concentration tested was 10 microM. […]
Your answer is read as %, so omit the unit and give the number.

Noted for CNC(C)C(=O)NC1CN(S(=O)(=O)c2cccc(S(=O)(=O)N3CCC4CCC(C(=O)NC(c5ccccc5)c5ccccc5)N4C(=O)C(NC(=O)C(C)NC)C3)c2)CCC2CCC(C(=O)NC(c3ccccc3)c3ccccc3)N2C1=O (stereo not drawn) + CCN1C(C(=O)NC23CCC(C(=O)O)(CC2)CC3)C(c2cccc(Cl)c2F)C2(C(=O)Nc3cc(Cl)ccc32)C12CCCCC2 : its viability, T/C reads 2.23

Noted for CCN1CCN(Cc2ccc(Nc3ncc(F)c(-c4cc(F)c5nc(C)n(C(C)C)c5c4)n3)nc2)CC1 + CCN1C(C(=O)NC23CCC(C(=O)O)(CC2)CC3)C(c2cccc(Cl)c2F)C2(C(=O)Nc3cc(Cl)ccc32)C12CCCCC2 : its viability, T/C reads 94.8

Noted for O=C(c1ccc(F)c(F)c1Nc1ccc(I)cc1F)N1CC(O)([C@@H]2CCCCN2)C1 + CCN1C(C(=O)NC23CCC(C(=O)O)(CC2)CC3)C(c2cccc(Cl)c2F)C2(C(=O)Nc3cc(Cl)ccc32)C12CCCCC2 : its viability, T/C reads 70.9

* * *

Tested on: MDA-MB-231 complex spheroids, growth inhibition
Assay: Anticancer human tumor MDA-MB-231 cell line growth inhibition [Asc]; active means viability on the fitted dose curve at most 10% of control; inactive means the rest;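 also: spheroids exposed to compounds for 7 days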
Conditions: second compound 0.1 µM; first compound 3.16 µM
Source text: Multicellular complex tumor spheroid response to apoptosis pathway targeting inhibitors Alrizomadlin, Pelcitoclax, and Dasminapant in combination with a variety of drugs and investigational agents in selected tumor cell lines […] Compounds. […] If the clinical Cmax for an agent had not been determined, the highest concentration tested was 10 microM. […]
Please reply with one of these outcomes: active, inactive

Solved cases below.
C#Cc1c(F)ccc2cc(O)cc(-c3ncc4c(N5CC6CCC(C5)N6)nc(OCC56CCCN5CC(F)C6)nc4c3F)c12 (stereo not given) + CNC(C)C(=O)NC1CN(S(=O)(=O)c2cccc(S(=O)(=O)N3CCC4CCC(C(=O)NC(c5ccccc5)c5ccccc5)N4C(=O)C(NC(=O)C(C)NC)C3)c2)CCC2CCC(C(=O)NC(c3ccccc3)c3ccccc3)N2C1=O :: active
C#Cc1c(F)ccc2cc(O)cc(-c3ncc4c(N5CC6CCC(C5)N6)nc(OCC56CCCN5CC(F)C6)nc4c3F)c12 (stereo not given) + Cc1c(S(C)(=O)=O)c(-c2cc(F)cc(N3CCN(c4ccc(NS(=O)(=O)c5ccc(NC(CCN6CCC(C(=O)OCCCP(=O)(O)O)CC6)CSc6ccccc6)c(S(=O)(=O)C(F)(F)F)c5)cc4)CC3)c2)c(-c2ccc(Cl)cc2)n1C(C)C :: inactive
C=CC(=O)N1CCN(c2nc(=O)n(-c3c(C)ccnc3C(C)C)c3nc(-c4c(O)cccc4F)c(F)cc23)C(C)C1 (stereo not given) + CNC(C)C(=O)NC1CN(S(=O)(=O)c2cccc(S(=O)(=O)N3CCC4CCC(C(=O)NC(c5ccccc5)c5ccccc5)N4C(=O)C(NC(=O)C(C)NC)C3)c2)CCC2CCC(C(=O)NC(c3ccccc3)c3ccccc3)N2C1=O :: active

Exercise: For O=C(c1cc(Cc2n[nH]c(=O)c3ccccc23)ccc1F)N1CCN(C(=O)C2CC2)CC1 + CNC(C)C(=O)NC1CN(S(=O)(=O)c2cccc(S(=O)(=O)N3CCC4CCC(C(=O)NC(c5ccccc5)c5ccccc5)N4C(=O)C(NC(=O)C(C)NC)C3)c2)CCC2CCC(C(=O)NC(c3ccccc3)c3ccccc3)N2C1=O , which call appears in the assay record?
Solution: active

Exercise: For C=C(F)C(=O)N1CCN(c2nc(OCC3CCCN3C)nc3c2CCN(c2cccc4cccc(Cl)c24)C3)CC1CC#N (stereo not given) + Cc1c(S(C)(=O)=O)c(-c2cc(F)cc(N3CCN(c4ccc(NS(=O)(=O)c5ccc(NC(CCN6CCC(C(=O)OCCCP(=O)(O)O)CC6)CSc6ccccc6)c(S(=O)(=O)C(F)(F)F)c5)cc4)CC3)c2)c(-c2ccc(Cl)cc2)n1C(C)C , which call appears in the assay record?
Solution: inactive

* * *

system: MDA-MB-231 complex spheroids, growth inhibition; test: Anticancer human tumor MDA-MB-231 cell line growth inhibition [Asc]; conditions: second compound 0.0316 µM; first compound 1 µM; stronger effect = lower value;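 also: spheroids exposed to compounds for 7 days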
measured.quantity: viability, T/C (%)
Your answer is read as %, so omit the unit and give the number.

O=C(c1cc(Cc2n[nH]c(=O)c3ccccc23)ccc1F)N1CCN(C(=O)C2CC2)CC1 + CNC(C)C(=O)NC1CN(S(=O)(=O)c2cccc(S(=O)(=O)N3CCC4CCC(C(=O)NC(c5ccccc5)c5ccccc5)N4C(=O)C(NC(=O)C(C)NC)C3)c2)CCC2CCC(C(=O)NC(c3ccccc3)c3ccccc3)N2C1=O :: 1.53
C=CC(=O)N1CCN(c2nc(=O)n(-c3c(C)ccnc3C(C)C)c3nc(-c4c(O)cccc4F)c(F)cc23)C(C)C1 (stereo not drawn) + CNC(C)C(=O)NC1CN(S(=O)(=O)c2cccc(S(=O)(=O)N3CCC4CCC(C(=O)NC(c5ccccc5)c5ccccc5)N4C(=O)C(NC(=O)C(C)NC)C3)c2)CCC2CCC(C(=O)NC(c3ccccc3)c3ccccc3)N2C1=O :: 3.15

Moving on to the next compound.
Noted for O=C(c1ccc(F)c(F)c1Nc1ccc(I)cc1F)N1CC(O)([C@@H]2CCCCN2)C1 + CNC(C)C(=O)NC1CN(S(=O)(=O)c2cccc(S(=O)(=O)N3CCC4CCC(C(=O)NC(c5ccccc5)c5ccccc5)N4C(=O)C(NC(=O)C(C)NC)C3)c2)CCC2CCC(C(=O)NC(c3ccccc3)c3ccccc3)N2C1=O : its viability, T/C reads 0.17
